Tested on: NCI-H1048 cells
Test: MTT proliferation assay, NCI-H1048;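 further: Dose-response in 96-well plates over 8 or 10 concentration points, with exposure spanning 3-4 cell doublings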
Type: cell-based
Settings: 5 days compound exposure, 1:3 serial dilution starting at 10 μM
*1 amine or outer side, *2 acyl side, *3 side chain or, on linkers, in order; H or OH if unused. Where a SMILES comes first, the peptide text is derived from it. Bridges are numbered along the chain shown (N, C = ends). [ ]: non-standard residue; d: D form. The star is where a group is joined. NMehhhLys(Me) = CN([C@@H](CCCCCCCN(C)[*:3])C(=O)[*:2])[*:1]; X117 = Cc1cc(-c2ccc(F)cc2C[C@@H](C(=O)[*:2])N(C)[*:1])cnn1; X104 = CN([C@@H](Cc1cc(Cl)ccc1C1=CCOCC1)C(=O)[*:2])[*:1]; X66 = CN([C@@H](Cc1cc(Cl)ccc1-c1cccnc1)C(=O)[*:2])[*:1]; cBuCO(3,3-F2-1-CF3) = O=C(C1(C(F)(F)F)CC(F)(F)C1)*; Pro(trans-4-F) = O=C(O)[C@@H]1C[C@@H](F)CN1; Gly(cPr) = N[C@H](C(=O)O)C1CC1
For each entry below, report its GI50 value.
Give bare numbers, in nM.

Consider the reported GI50 for these compounds:
* CC(C)C[C@@H]1NC(=O)[C@@H](N(C)C(=O)[C@@H](NC(=O)[C@@H]2C[C@@H](F)CN2C(=O)C2(C(F)(F)F)CC(F)(F)C2)C2CC2)CCCCCCCN(C)C(=O)[C@H](Cc2cc(Cl)ccc2-c2cccnc2)N(C)C1=O [Example 196] ({cBuCO(3,3-F2-1-CF3)}-[Pro(trans-4-F)][Gly(cPr)][NMehhhLys(Me)]L[X66]; lactam 3-C) | 10
* Cc1cc(-c2ccc(F)cc2C[C@H]2C(=O)N(C)CCCCCCC[C@H](N(C)C(=O)[C@@H](NC(=O)[C@@H]3C[C@@H](F)CN3C(=O)C3(C(F)(F)F)CC(F)(F)C3)C3CC3)C(=O)N[C@@H](CC(C)C)C(=O)N2C)cnn1 [Example 293] ({cBuCO(3,3-F2-1-CF3)}-[Pro(trans-4-F)][Gly(cPr)][NMehhhLys(Me)]L[X117]; lactam 3-C) | 50

Below: the item to evaluate.
Query: Can you share its GI50? I mean this compound: CC(C)C[C@@H]1NC(=O)[C@@H](N(C)C(=O)[C@@H](NC(=O)[C@@H]2C[C@@H](F)CN2C(=O)C2(C(F)(F)F)CC(F)(F)C2)C2CC2)CCCCCCCN(C)C(=O)[C@H](Cc2cc(Cl)ccc2C2=CCOCC2)N(C)C1=O [Example 51] ({cBuCO(3,3-F2-1-CF3)}-[Pro(trans-4-F)][Gly(cPr)][NMehhhLys(Me)]L[X104]; lactam 3-C)
Response: 10

This collection of values is drawn from patent US20240408169A1.
